Test: Acute toxicity
Assay type: in vivo, S.D. rats
Conditions: rat, in vivo, po, male S.D. rats (8 weeks old), peroral, in 0.5% carboxymethylcellulose
Reported Property: LD50

So what's the measured LD50 for this one? CC(C)=CC(=O)NP(N)(N)=O [Compound A]
> 6000 mg/kg

====

Experiment: Rate of migration into urine
Settings: rat, in vivo, po; 50 mg/kg perorally, S.D. rats, urine excreted for 24 hrs; read-out: Rate of migration into urine, Average ± S.E.
Here the recorded dose excreted at 24 h is given for each entry.
Quick reminder: number only, in %, skip the unit.

CC(C)=CC(=O)NP(N)(N)=O [Compound A]    29.6

Record request: dose excreted at 24 h value, item NP(N)(=O)NC(=O)c1ccccc1 [Control Compound, N-(diaminophosphinyl)benzamide, reference compound]
21
